experiment: in vitro; settings: human, hela cells, % viability
Mark y only for viability at 28.5 h, 10 µM values smaller than 90%; exact matches and larger values are n.

>>> assignedlabel("O=C(Nc1cc(Oc2ccc(Cl)cc2)cc([N+](=O)[O-])c1)c1cnn2c(C(F)F)cc(C3CC3)nc12 [CBK268925]")
"n"
>>> assignedlabel("Cc1ccc(N2C(=O)C(CC(=O)Nc3cccc(F)c3)N(CCc3ccncc3)C2=O)cc1 (stereo not drawn) [CBK268891]")
"n"
>>> assignedlabel("CCOc1cc(/C=C/c2ccc3cccc(O)c3n2)cc(Br)c1O [CBK264451]")
"n"
>>> assignedlabel("CC(C)n1c(=O)n(CC(=O)N(C)C2CCCCC2)c2cccnc21 [CBK283695]")
"n"

Q: Problem: For the compound CCc1cc(=O)oc2cc(OC(=O)c3ccco3)ccc12 [CBK264657] , is viability at 28.5 h, 10 µM under 90%?
Ans: y

Q: Problem: For the compound COc1ccc(NS(=O)(=O)c2ccc(Cl)c(C(=O)Nc3ccccc3C(=O)O)c2)cc1 [CBK263209] , is viability at 28.5 h, 10 µM under 90%?
Ans: n
